test name: Plasma protein binding
Format: in vitro ADME
condition info: mouse, mice, read-out: PPB (converted)
The reader will find reported fraction unbound values listed item by item below.
I only need the number, thanks.

Worked cases, answers included:
compound	measurement type	quantitative readout
CNC(=O)C(C)c1ccc(Oc2nc3ccc(Cl)cc3s2)cc1 (stereo not shown)	fraction unbound	0.015
CC(C(=O)N1CCN(C)CC1)c1ccc(Oc2nc3ccc(Cl)cc3s2)cc1 (stereo not shown)	fraction unbound	0.019
CC(C)NC(=O)C(C)c1ccc(Oc2nc3ccc(Cl)cc3s2)cc1 (stereo not shown)	fraction unbound	0.016

Now take the following compound into account.
Query CC(C(=O)N1CCS(=O)(=O)CC1)c1ccc(Oc2nc3ccc(Cl)cc3s2)cc1 (stereo not shown) yields fraction unbound of 0.01

* * *

In this section, each of the compounds is paired with its reported concentrations at which not toxic, S. cerevisiae cytotoxicity testing.
Test system: S. cerevisiae
test name: in vitro
condition info: Saccharomyces cerevisiae

# annotated cases, reported concentrations at which not toxic, S. cerevisiae cytotoxicity testing shown
compound	result
NCCC(=O)Nc1ccc(Oc2nc3ccc(F)cc3s2)cc1	≥ 100 µM
CON(C)C(=O)COc1ccc(Oc2cnc3cc(Cl)ccc3n2)cc1	≥ 100 µM

Please examine the following record next.
COc1ccc2nc(Oc3ccc(C(C)C(=O)O)cc3)sc2c1 (stereo not drawn) yielded concentrations at which not toxic, S. cerevisiae cytotoxicity testing of ≥ 100 µM

* * *

Endpoint: IC50. System: Human ether-a-go-go-related gene (hERG) (Homo sapiens, UniProt Q12809). Items follow.
Sequence (Q12809 whole entry): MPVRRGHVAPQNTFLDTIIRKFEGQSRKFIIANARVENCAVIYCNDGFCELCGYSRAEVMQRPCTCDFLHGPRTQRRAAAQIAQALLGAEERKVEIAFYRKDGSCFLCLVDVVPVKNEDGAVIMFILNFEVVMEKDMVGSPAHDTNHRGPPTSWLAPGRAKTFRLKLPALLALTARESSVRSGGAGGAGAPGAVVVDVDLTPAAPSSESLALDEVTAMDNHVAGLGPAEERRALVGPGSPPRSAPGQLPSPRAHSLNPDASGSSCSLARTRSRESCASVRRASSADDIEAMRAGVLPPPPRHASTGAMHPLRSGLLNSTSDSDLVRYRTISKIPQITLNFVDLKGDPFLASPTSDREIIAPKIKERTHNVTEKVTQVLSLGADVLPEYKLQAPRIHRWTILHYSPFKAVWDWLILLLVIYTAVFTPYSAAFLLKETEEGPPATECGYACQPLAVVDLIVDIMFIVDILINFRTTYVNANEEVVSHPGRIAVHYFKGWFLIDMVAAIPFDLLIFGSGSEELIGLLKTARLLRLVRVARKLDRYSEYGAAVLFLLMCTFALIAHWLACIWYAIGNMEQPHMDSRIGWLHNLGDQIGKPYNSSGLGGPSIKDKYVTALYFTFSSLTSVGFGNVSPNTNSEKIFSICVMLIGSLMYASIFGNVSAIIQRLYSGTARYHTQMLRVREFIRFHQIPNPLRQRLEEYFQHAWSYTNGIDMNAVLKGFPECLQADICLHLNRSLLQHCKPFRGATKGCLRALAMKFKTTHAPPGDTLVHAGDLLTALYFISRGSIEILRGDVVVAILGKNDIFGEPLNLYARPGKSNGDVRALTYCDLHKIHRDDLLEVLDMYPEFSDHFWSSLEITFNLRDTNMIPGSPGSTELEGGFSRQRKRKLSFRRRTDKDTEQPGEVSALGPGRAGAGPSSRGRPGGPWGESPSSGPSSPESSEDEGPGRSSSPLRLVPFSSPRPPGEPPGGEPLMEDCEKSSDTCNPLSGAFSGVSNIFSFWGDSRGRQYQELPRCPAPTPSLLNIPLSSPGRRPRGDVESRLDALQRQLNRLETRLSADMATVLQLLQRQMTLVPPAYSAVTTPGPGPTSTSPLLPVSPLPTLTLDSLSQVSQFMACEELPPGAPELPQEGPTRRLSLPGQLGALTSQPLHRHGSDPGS
Give just the number in µM; leave the unit off.

molecule	measured on	measurement type	quantitative readout
CC(C(=O)NC1CCOC1)c1ccc(Oc2nc3ccc(Cl)cc3s2)cc1 (stereo not drawn) [NZ-544]	Human ether-a-go-go-related gene (hERG) (Homo sapiens, UniProt Q12809)	IC50	11

Below: the item to evaluate.
Entry CC(C(=O)N1CCOCC1)c1ccc(Oc2nc3ccc(Cl)cc3s2)cc1 (stereo not drawn) [NZ-365] — recorded IC50 = 12

* * *

Test system: S. cerevisiae
test name: in vitro
condition info: Saccharomyces cerevisiae
measurement type: concentrations at which not toxic, S. cerevisiae cytotoxicity testing

molecule smiles	result
O=C(COc1ccc(Oc2cnc3cc(Cl)ccc3n2)cc1)NOCC1CC1	≥ 100 µM
CC(C)NC(=O)Nc1ccc(Oc2nc3ccccc3s2)cc1	≥ 100 µM

We now examine a further molecule.
The molecule CNC(=O)Cc1ccc(Oc2nc3ccc(Cl)cc3s2)cc1O showed concentrations at which not toxic, S. cerevisiae cytotoxicity testing equal to ≥ 100 µM
